- experimental-protocol: yeast display, Sf9 membrane polyspecificity reagent, FACS + sequencing; frameworks hold sequencing errors
measurement-name: polyreactivity (PSR sort gate)

ordered-residues: QVQLVESGGGLVQAGGSLRLSCAASGSTFYRYTMGWYRQAPGKERELVAAISRSGGRTYYADSVKGRFTISRDKAKNTVSVQMNSLKPEDTAVYYCAAARRYGRYFGYPMEYWGQGTQVTVTS
measurement-name: polyreactivity (PSR sort gate)
endpoint-result: high polyreactivity

ordered-residues: QVQLVESGGGLVQAGGSLRLSCAASGIIFYPYAMGWYRQAPGKERELVAGISWSGGRTYYADSVKGRFTISRDNAKNTVYLQMNSLKPEDTAVYYCAARYRQRAYDYWGQGTQVTVSS
measurement-name: polyreactivity (PSR sort gate)
endpoint-result: high polyreactivity

ordered-residues: QVQLVESGGGLVQAGGSLRLSCAASGSTFSQYVMGWYRQAPAKERELVAAISSGGSTYYADSVKGRFTISRDNAKNTVYLQMNSLKPEDTAVYYCAAKYDGSYVGLYWYSMNYWGQGTQVTVSS
measurement-name: polyreactivity (PSR sort gate)
endpoint-result: low polyreactivity

ordered-residues: QDQLVESGGGLVQAGGSLRLSCAASGRTFGDKALGWYRQAPGKERELVAAISWSGGRTYYADSVKGRFTISRDYGKNTVYLQMNSLKPEDTAVYYCAARNNRYPLYNYWGQGTQVTVSS
measurement-name: polyreactivity (PSR sort gate)
endpoint-result: low polyreactivity

ordered-residues: QVQLVESGGGLVQAGGSLRLSCAASGRTFWYYDMGWYRQAPGKERELVATINNVGSTHYADSVKGRFTISRDNAKNTVYLQMNSLKPEDTAVYYCARASYGKMDYWGQGTQVTVSS
measurement-name: polyreactivity (PSR sort gate)
endpoint-result: high polyreactivity

ordered-residues: QVQLVESGGGLVQAGGSLRLSCAASGFIFRYNAMGWYRQAPGKEREFVAAISWGGGRTYYADSVKGRFTISRDNAKNTVYLQMNSLKPEDTAVYYCAAVSPHNRYGYKYDYWGQGTQVTVSS
measurement-name: polyreactivity (PSR sort gate)
endpoint-result: high polyreactivity

ordered-residues: QVQLVESGGGLVQAGGSLRLSCAASGFTFARYAMGWYRQAPGKERELVAAINWSGGRTYYADSVKGRFTISRDNAKNTVYLQMNSLKPEDTAVYYCNAWGLVYYSSGYDYWGQGTQVTVSS
measurement-name: polyreactivity (PSR sort gate)
endpoint-result: high polyreactivity

ordered-residues: QVQLVESGGGLVQAGGSLRLSCAASGRIFGRYTMGWYRQAPGKERELVAGITSSGGRTYYADSVKGRFTISRDNANNTVYLQMNSLKPEDTAVYYCAAKRWSVPSLYNYWGQGTQVTVSS
measurement-name: polyreactivity (PSR sort gate)
endpoint-result: high polyreactivity

ordered-residues: QVQLEESGVGLLQAGGSLRLSCAASGFIFCSNDMGWYRQAPGKERELVAAITRGGNTNYADSVKGRFTISRDNAKNTVYLQLNSLKPEDTAVYYCATEGYGAVQPSYEGGYWGQGTQVTVSS
measurement-name: polyreactivity (PSR sort gate)
endpoint-result: low polyreactivity

ordered-residues: QVQLVESGGGLVHAGGSLRLSCAASGSTFKYYAMGWYRQAPGKERELVAAISSGNSTYYADSVKGRFTISRDNAKNTVYLQMNSLKPEDTAVYYCAAYWRRDPMDYWGQGTQVTVSS
measurement-name: polyreactivity (PSR sort gate)
endpoint-result: high polyreactivity

ordered-residues: QDQLVESGGGLVQAGGSLRLSCAASGRTFASYAMGWYRQAPGKERELVAAITSSGGRTYYADSVKGRFTISRDYAKNTVYLQMNSLKPEVTAVYYCAVRGTKGYGYWGQGTQVTVSS
measurement-name: polyreactivity (PSR sort gate)
endpoint-result: high polyreactivity

Where these numbers come from: the nanobody polyreactivity screen of Harvey et al. (2022)
